Data provenance is paper PMC12467433.

Target: InhA (Mycobacterium tuberculosis)
Construct: made in house
Sequence (P9WGR1 whole entry, looked up): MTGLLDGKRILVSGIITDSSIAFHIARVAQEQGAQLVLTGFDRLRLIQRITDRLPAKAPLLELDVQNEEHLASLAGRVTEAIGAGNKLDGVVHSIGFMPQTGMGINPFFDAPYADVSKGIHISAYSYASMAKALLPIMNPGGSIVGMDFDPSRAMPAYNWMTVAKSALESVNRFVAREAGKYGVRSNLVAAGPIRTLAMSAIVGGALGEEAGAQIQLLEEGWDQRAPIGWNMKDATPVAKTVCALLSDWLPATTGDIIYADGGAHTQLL
Test: InhA inhibition (NADH oxidation at 340 nm, DDCoA substrate)
Assay type: biochemical
Conditions: at 50 μM concentration; NI: No inhibition
EXPERIMENTAL READOUT: inhibition at 50 µM

The following compounds have reported results that may help.
compound="O=C(NN=Cc1ccc(N2CCN(C3CCCCC3)CC2)cc1)c1ccncc1 [IP11]" tested_system="InhA (Mycobacterium tuberculosis)" value=81%
compound="CCOC(=O)C1CCN(c2ccc(C=NNC(=O)c3ccncc3)cc2)CC1 [IP12]" tested_system="InhA (Mycobacterium tuberculosis)" value=17%

Q: Read off the recorded inhibition at 50 µM for Cc1ccc(N2CCN(c3ccc(C=NNC(=O)c4ccncc4)cc3)CC2)c(C)c1 [IP5]
Ans: 16%

Q: Read off the recorded inhibition at 50 µM for O=C(NN=Cc1ccc(N2CCN(c3ccc(C(F)(F)F)cc3)CC2)cc1)c1ccncc1 [IP6]
Ans: 37%

Q: Read off the recorded inhibition at 50 µM for CN1CCN(c2ccc(C=NNC(=O)c3ccncc3)cc2)CC1 [IP10]
Ans: 30%

Q: Read off the recorded inhibition at 50 µM for O=C(NN=Cc1ccc(N2CCN(c3ccc(Cl)cc3)CC2)cc1)c1ccncc1 [IP3]
Ans: 21%

Q: Read off the recorded inhibition at 50 µM for O=C(NN=Cc1ccc(N2CCN(c3ccc(Br)cc3)CC2)cc1)c1ccncc1 [IP4]
Ans: < 10%

Q: Read off the recorded inhibition at 50 µM for COc1ccc(N2CCN(c3ccc(C=NNC(=O)c4ccncc4)cc3)CC2)cc1 [IP7]
Ans: 10%
